biological target: PPARγ (Homo sapiens, UniProt P37231); construct: GeneBLAzer bla HEK 293T reporter line (Invitrogen); test: GAL-LBD beta-lactamase reporter qHTS, HEK […], […] nm ratio
Sequence (P37231 238-505 limits assumed): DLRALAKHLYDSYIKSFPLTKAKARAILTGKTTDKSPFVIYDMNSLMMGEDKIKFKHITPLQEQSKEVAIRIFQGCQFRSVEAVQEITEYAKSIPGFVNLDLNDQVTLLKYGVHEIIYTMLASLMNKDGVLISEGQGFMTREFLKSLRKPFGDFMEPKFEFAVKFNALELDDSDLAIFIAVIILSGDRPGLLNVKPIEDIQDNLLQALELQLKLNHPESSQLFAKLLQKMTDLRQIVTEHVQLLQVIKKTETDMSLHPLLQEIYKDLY
Recorded metric: EC50 (µM)

Compound: CC(C)C[C@H](NC(=O)OCC1c2ccccc2-c2ccccc21)C(=O)O [Fmoc-l-leucine]
Value: 11.2

* * *

Biological target: PPARδ (Homo sapiens)
Construct: gene PPARD; GeneBLAzer bla HEK 293T reporter line (Invitrogen)
Sequence (Q03181 139-441 limits assumed): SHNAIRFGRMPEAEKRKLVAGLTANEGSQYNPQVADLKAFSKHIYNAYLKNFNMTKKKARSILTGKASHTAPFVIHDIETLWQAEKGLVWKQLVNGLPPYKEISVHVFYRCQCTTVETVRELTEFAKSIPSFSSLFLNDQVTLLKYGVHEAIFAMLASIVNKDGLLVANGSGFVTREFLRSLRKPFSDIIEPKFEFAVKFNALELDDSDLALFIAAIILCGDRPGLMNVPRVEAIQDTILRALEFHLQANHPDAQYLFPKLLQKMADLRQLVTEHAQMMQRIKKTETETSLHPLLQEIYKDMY
Test: GAL-LBD beta-lactamase reporter qHTS, HEK […], […] nm ratio
Assay type: cell-based
pEC50: −log10 of the molar value.

Compound: CCCc1c(OCCCOc2ccc(OCC(=O)O)cc2)ccc(C(C)=O)c1O
pEC50: 7.05
--
Compound: CCCCCCCCCCCCCCC(Br)C(=O)O (centres unmarked)
pEC50: 4.55
